# credit: patent US4677110A

Assay: Acute toxicity, intraperitoneal administration
Conditions: mouse, in vivo, ip, ddY mice, suspension with Tween-80
PROPERTY: LD50

Given item O=C(NC(=O)c1ccccc1[N+](=O)[O-])Nc1ccc(Oc2ncc(I)cn2)c(C(F)(F)F)c1 , the value recorded as its LD50 is 50 to 100 mg/kg

---

Experiment: Acute toxicity, oral administration
Assay type: in vivo
Details: mouse, in vivo; oral, ddY mice, Formulation Example 4
PROPERTY: LD50

- COMPOUND SMILES: "O=C(NC(=O)c1ccccc1[N+](=O)[O-])Nc1ccc(Oc2ncc(Br)cn2)c(C(F)(F)F)c1"
  LD50: "≥ 12.5 mg/kg"

Could you now consider this next compound?
Given item O=C(NC(=O)c1ccccc1[N+](=O)[O-])Nc1ccc(Oc2ncc(Cl)cn2)c(C(F)(F)F)c1 , the value recorded as its LD50 is ≥ 12.5 mg/kg
